biological target: CALRdel52 (mutant calreticulin, 52 base pair deletion, Type 1) expressed with MPL on engineered cancer cells (UniProt P27797); assay: cell-based or functional assay
Sequence (P27797 other isoform, or with tags, fused parts or gaps mutant limits assumed): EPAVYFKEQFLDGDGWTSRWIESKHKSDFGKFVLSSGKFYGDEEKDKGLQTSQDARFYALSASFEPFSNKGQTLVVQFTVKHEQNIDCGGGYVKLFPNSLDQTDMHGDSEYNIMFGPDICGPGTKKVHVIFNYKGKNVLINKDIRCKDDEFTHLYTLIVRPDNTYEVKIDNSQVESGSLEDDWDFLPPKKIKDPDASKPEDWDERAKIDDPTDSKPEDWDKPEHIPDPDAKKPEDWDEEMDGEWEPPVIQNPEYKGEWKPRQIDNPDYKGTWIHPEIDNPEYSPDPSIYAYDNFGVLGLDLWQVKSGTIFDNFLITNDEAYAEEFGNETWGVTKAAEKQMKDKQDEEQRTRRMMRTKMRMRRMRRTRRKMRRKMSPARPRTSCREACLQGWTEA
reported.metric: Cytotoxicity EC50, K562 MPL CALRdel52 cells (µg/mL)
Form entry: value (µg/mL) — number only.

Can you share its Cytotoxicity EC50, K562 MPL CALRdel52 cells? I mean this binder: CALRB80 (MP1018C Fab x CD3W245-LH-scFv, medium affinity) (bispecific antibody, part only; not given: CD3 scFv arm and IgG1 constant regions, V domains shown, not shown: another chain or arm of the molecule; a dimerising Fc or GST; small tags and cut ends) VL: DVVMTQTPSSVSAAVGGTVTINCQASQSLYNNKNLAWYQQKPGQPPKLLIYYASALASGVSSRFKGSGSGTQFTLTISGVQSDDAATYYCQGEFNCNSADCNSFGGGTEVVVK VH: QSVEESGGRLVTPGTPLTITCTVSGFSLSSYAMSWVRQAPGKGLEWIGVIDSGGTTYYATWAKSRFTISKTSSTKVALKITSPTTEDTATYFCARESYAGYDGYGHPIPYGMDPWGPGTLVTVSS
0.0401
